The reported measurements were obtained from patent WO2016008851A1.

Biological target: recombinant cynomolgus IL-1B (cynomolgus, UniProt P79182 117-268, limits assumed)
Sequence (P79182 117-268 limits assumed): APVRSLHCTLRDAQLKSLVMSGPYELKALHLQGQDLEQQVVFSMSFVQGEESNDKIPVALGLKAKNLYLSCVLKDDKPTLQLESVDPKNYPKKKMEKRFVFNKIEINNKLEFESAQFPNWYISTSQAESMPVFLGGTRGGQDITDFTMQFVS
Assay: cell-based or functional assay
I'd be grateful if you could share measured IC50, rec. cyno IL-1 B, HEK blue for these entries.
One number for each entry, in nM.

Antibody B3 (antibody, V domains shown) VH: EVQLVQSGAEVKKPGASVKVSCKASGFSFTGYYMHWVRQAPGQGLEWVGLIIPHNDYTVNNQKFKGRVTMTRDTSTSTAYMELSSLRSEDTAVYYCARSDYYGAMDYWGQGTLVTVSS VL: EIVMTQSPATLSVSPGERATLSCRASQNIGTSIHWYQQKPGQAPRLLIKYASDSVYGIPARFSGSGSGTEFTLTISSLQSEDIAVYYCQQGASWPPFTFGQGTKLEIK
0.014
Antibody A4 (antibody, V domains shown) VH: QVQLVQSGAEVKKPGASVKVSCKATGYTFTDYWIAWVRQAPGQGLEWMGSIFPGGDYTNYNEKFKGRVTMTRDTSTSTSYMELSSLRSEDTAVYYCARPYYSNYGHFDYWGQGTLVTVSS VL: EIVLTQSPATLSLSPGERATLSCRASESVDNSGIGFMNWYQQKPGQAPRLLIYAASNQGSGIPARFSGSGSGTDFTLTISRLEPEDFAVYYCQQNKELPWTFGQGTKLEIK
0.026

**Q:** Return the recorded IC50, rec. cyno IL-1 B, HEK blue value; entry: Antibody B4 (antibody, V domains shown) VH: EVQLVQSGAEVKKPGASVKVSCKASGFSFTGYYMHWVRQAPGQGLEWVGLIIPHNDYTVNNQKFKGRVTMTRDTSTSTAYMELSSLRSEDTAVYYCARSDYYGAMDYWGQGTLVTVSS VL: EIVMTQSPATLSVSPGERATLSCRASQNIGTSIHWYQQKPGQAPRLLIKYASDSKDGIPARFSGSGSGTEFTLTISSLQSEDIAVYYCQQGASWPPFTFGQGTKLEIK
**A:** 0.02
